Biological target: 5-HT2B receptors (Homo sapiens)
Sequence (P41595 whole entry): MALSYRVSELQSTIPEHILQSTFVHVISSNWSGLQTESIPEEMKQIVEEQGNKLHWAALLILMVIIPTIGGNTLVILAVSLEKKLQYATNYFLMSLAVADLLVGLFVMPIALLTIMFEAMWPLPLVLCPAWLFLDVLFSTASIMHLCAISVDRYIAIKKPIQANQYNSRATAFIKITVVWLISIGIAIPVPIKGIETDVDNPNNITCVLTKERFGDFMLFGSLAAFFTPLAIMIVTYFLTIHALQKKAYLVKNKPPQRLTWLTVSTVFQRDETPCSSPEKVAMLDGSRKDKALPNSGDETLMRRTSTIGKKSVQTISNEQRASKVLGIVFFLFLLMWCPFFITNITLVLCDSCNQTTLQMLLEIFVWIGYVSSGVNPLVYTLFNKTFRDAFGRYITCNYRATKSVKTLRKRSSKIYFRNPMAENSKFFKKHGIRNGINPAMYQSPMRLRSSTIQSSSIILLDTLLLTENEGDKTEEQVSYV
pKi: −log10 of the molar value.
pKi listing for selected compounds.
readout.type: pKi

compound	test.value
COC(=O)c1c(C(=O)OCCCNC(=O)CCCOc2cc(I)c(OC)cc2CC(C)N)c2ccccc2c2ccccc12 (centres unmarked) [12d]	6.85
CCN(CC)c1ccc2c(-c3ccccc3C(=O)NCCC(=O)NCCC(=O)NCCCOCCOCCOCCCNC(=O)CCCOc3cc(I)c(OC)cc3CC(C)N)c3ccc(=[N+](CC)CC)cc-3oc2c1 (centres unmarked) [12i]	6.58
COc1cc(CC(C)N)c(OCCCCCCC(=O)NCCCNS(=O)(=O)c2cccc3c(N(C)C)cccc23)cc1I (centres unmarked) [10b]	6.78
COc1cc(CC(C)N)c(OCCCC(=O)NCCCN2C(=O)c3c(c4ccccc4c4ccccc34)C2=O)cc1I (centres unmarked) [12c]	7.06
COc1cc(CC(C)N)c(OCCCC(=O)NCCCNc2ccc([N+](=O)[O-])c3nonc23)cc1I (centres unmarked) [12b]	7.04

----------
pKi: −log10 of the molar value.
Here's what we have: pKi numbers for 5-HT2B receptors (Homo sapiens, UniProt P41595).

molecule	pKi
COC(=O)c1c(C(=O)OCCCNC(=O)CCCOc2cc(I)c(OC)cc2CC(C)N)c2cc3ccccc3cc2c2cc3ccccc3cc12 (stereo not shown) [12g]	6.55
COC(=O)c1c(C(=O)OCCCNC(=O)CCCOc2cc(I)c(OC)cc2CC(C)N)c2cc3c(cc2c2cc4c(cc12)CCC4)CCC3 (stereo not shown) [12f]	6.87
COc1cc(CC(C)N)c(OCCCCCCCCCCC(=O)NCCCNS(=O)(=O)c2cccc3c(N(C)C)cccc23)cc1I (stereo not shown) [10c]	6.09
COC(=O)c1c(C(=O)OCCCNC(=O)CCCOc2cc(I)c(OC)cc2CC(C)N)c2cc(F)c(F)cc2c2cc(F)c(F)cc12 (stereo not shown) [12e]	6.83
COc1cc(CC(C)N)c(OCCCC(=O)NCCCNS(=O)(=O)c2cccc3c(N(C)C)cccc23)cc1I (stereo not shown) [10a]	6.95
CCCCCCC(CCCCCC)N1C(=O)c2ccc3c4ccc5c6c(ccc(c7ccc(c2c37)C1=O)c64)C(=O)N(CCCNC(=O)CCCOc1cc(I)c(OC)cc1CC(C)N)C5=O (stereo not shown) [12h]	5.85
COc1cc(CC(C)N)c(OC)cc1I (stereo not shown) [DOI, reference compound]	7.32

----------
Measured pKi values are reported for all entries that follow.
Molecular target: human 5-HT2C receptors (Homo sapiens, UniProt P28335)
Construct: expressed in transfected cells; host or cells: HeLa-5-HT2C cells (membranes)
Sequence (P28335 33-458): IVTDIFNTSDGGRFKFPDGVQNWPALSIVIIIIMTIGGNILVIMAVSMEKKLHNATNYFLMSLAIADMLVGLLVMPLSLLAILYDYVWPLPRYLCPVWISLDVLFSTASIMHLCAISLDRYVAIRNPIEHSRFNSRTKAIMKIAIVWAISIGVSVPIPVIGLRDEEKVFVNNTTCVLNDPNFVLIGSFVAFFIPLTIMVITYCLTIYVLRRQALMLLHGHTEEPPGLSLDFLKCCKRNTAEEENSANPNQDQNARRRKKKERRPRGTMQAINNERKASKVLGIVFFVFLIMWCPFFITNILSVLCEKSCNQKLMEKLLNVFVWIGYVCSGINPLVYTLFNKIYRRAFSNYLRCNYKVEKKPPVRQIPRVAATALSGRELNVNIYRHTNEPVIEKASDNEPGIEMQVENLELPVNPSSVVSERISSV
Assay: Radioligand competition binding assay at human 5-HT2C receptors
pKi: −log10 of the molar value.

compound	pKi
CCN(CC)c1ccc2c(-c3ccccc3C(=O)NCCC(=O)NCCC(=O)NCCCOCCOCCOCCCNC(=O)CCCOc3cc(I)c(OC)cc3CC(C)N)c3ccc(=[N+](CC)CC)cc-3oc2c1 (stereo not drawn) [12i]	6.00
COc1cc(CC(C)N)c(OCCCC(=O)NCCCNc2ccc([N+](=O)[O-])c3nonc23)cc1I (stereo not drawn) [12b]	5.74
COc1cc(CC(C)N)c(OC)cc1I (stereo not drawn) [DOI, reference compound]	7.74
COc1cc(CC(C)N)c(OCCCC(=O)NCCCNS(=O)(=O)c2cccc3c(N(C)C)cccc23)cc1I (stereo not drawn) [10a]	6.56
COc1cc(CC(C)N)c(OCCCCCCC(=O)NCCCNS(=O)(=O)c2cccc3c(N(C)C)cccc23)cc1I (stereo not drawn) [10b]	6.53
COc1cc(CC(C)N)c(OCCCC(=O)NCCCN2C(=O)c3c(c4ccccc4c4ccccc34)C2=O)cc1I (stereo not drawn) [12c]	6.21
COC(=O)c1c(C(=O)OCCCNC(=O)CCCOc2cc(I)c(OC)cc2CC(C)N)c2cc3c(cc2c2cc4c(cc12)CCC4)CCC3 (stereo not drawn) [12f]	5.99
COC(=O)c1c(C(=O)OCCCNC(=O)CCCOc2cc(I)c(OC)cc2CC(C)N)c2ccccc2c2ccccc12 (stereo not drawn) [12d]	5.96
COC(=O)c1c(C(=O)OCCCNC(=O)CCCOc2cc(I)c(OC)cc2CC(C)N)c2cc(F)c(F)cc2c2cc(F)c(F)cc12 (stereo not drawn) [12e]	5.64

----------
Biological target: 5-HT2A receptors (Homo sapiens, UniProt P28223)
Sequence (P28223 whole entry): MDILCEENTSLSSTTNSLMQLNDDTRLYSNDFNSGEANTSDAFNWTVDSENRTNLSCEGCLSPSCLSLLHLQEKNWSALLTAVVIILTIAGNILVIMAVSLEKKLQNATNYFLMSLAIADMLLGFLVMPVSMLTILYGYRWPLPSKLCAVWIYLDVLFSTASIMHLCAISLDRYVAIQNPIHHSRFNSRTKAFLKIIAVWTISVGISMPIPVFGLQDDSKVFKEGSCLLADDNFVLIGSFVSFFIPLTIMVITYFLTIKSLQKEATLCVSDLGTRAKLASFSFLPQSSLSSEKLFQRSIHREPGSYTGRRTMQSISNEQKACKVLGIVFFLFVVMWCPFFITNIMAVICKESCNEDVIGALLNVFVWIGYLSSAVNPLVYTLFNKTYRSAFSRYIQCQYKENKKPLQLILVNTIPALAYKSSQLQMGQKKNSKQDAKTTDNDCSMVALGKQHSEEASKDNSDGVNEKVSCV
Test: Radioligand competition binding assay at human 5-HT2A receptors
Design: expressed in transfected cells; host or cells: CHO-FA4-5-HT2A cells (membranes)
Examples of molecules with documented Ki follow.
readout.type: Ki (µM)

molecule	readout.type	unit.text	test.value
COc1cc(CC(C)N)c(OCCCC(=O)NCCCNc2ccc([N+](=O)[O-])c3nonc23)cc1I (stereo not shown) [12b]	Ki	µM	3.31
CCN(CC)c1ccc2c(-c3ccccc3C(=O)NCCC(=O)NCCC(=O)NCCCOCCOCCOCCCNC(=O)CCCOc3cc(I)c(OC)cc3CC(C)N)c3ccc(=[N+](CC)CC)cc-3oc2c1 (stereo not shown) [12i]	Ki	µM	1.22
COc1cc(CC(C)N)c(OCCCC(=O)NCCCN2C(=O)c3c(c4ccccc4c4ccccc34)C2=O)cc1I (stereo not shown) [12c]	Ki	µM	5.18
COc1cc(CC(C)N)c(OCCCCCCC(=O)NCCCNS(=O)(=O)c2cccc3c(N(C)C)cccc23)cc1I (stereo not shown) [10b]	Ki	µM	41.2

----------
// pKi lookup, one value per entry
Molecular target: 5-HT2A receptors (Homo sapiens, UniProt P28223)
Assay: Radioligand competition binding assay at human 5-HT2A receptors
Design: expressed in transfected cells; host or cells: CHO-FA4-5-HT2A cells (membranes)
pKi: −log10 of the molar value.

molecule	pKi
COC(=O)c1c(C(=O)OCCCNC(=O)CCCOc2cc(I)c(OC)cc2CC(C)N)c2ccccc2c2ccccc12 (stereo not shown) [12d]	5.40
COC(=O)c1c(C(=O)OCCCNC(=O)CCCOc2cc(I)c(OC)cc2CC(C)N)c2cc(F)c(F)cc2c2cc(F)c(F)cc12 (stereo not shown) [12e]	5.59
COC(=O)c1c(C(=O)OCCCNC(=O)CCCOc2cc(I)c(OC)cc2CC(C)N)c2cc3c(cc2c2cc4c(cc12)CCC4)CCC3 (stereo not shown) [12f]	5.64
COc1cc(CC(C)N)c(OCCCC(=O)NCCCNS(=O)(=O)c2cccc3c(N(C)C)cccc23)cc1I (stereo not shown) [10a]	5.77

----------
Target: 5-HT2B receptors (Homo sapiens)
Assay: Functional assay of IPs accumulation at human 5-HT2B receptors
Type: cell-based
readout.type: EC50 (nM)

compound	readout.type	unit.text	test.value
CCN(CC)c1ccc2c(-c3ccccc3C(=O)NCCC(=O)NCCC(=O)NCCCOCCOCCOCCCNC(=O)CCCOc3cc(I)c(OC)cc3CC(C)N)c3ccc(=[N+](CC)CC)cc-3oc2c1 (stereo not shown) [12i]	EC50	nM	225
COc1cc(CC(C)N)c(OCCCC(=O)NCCCNS(=O)(=O)c2cccc3c(N(C)C)cccc23)cc1I (stereo not shown) [10a]	EC50	nM	89.1
COc1cc(CC(C)N)c(OC)cc1I (stereo not shown) [DOI, reference compound]	EC50	nM	11.7
COc1cc(CC(C)N)c(OCCCC(=O)NCCCN2C(=O)c3c(c4ccccc4c4ccccc34)C2=O)cc1I (stereo not shown) [12c]	EC50	nM	24.9

----------
Target: human 5-HT2C receptors (Homo sapiens)
Construct: expressed in transfected cells; host or cells: HeLa-5-HT2C cells (membranes)
Test: Radioligand competition binding assay at human 5-HT2C receptors
Conditions: [3H]Mesulergine, membranes from HeLa-5-HT2C cells; read-out: Binding at 5-HT2 receptors Ki 5-HT2C
readout.type: Ki (µM)

compound	measurement.target	readout.type	unit.text	test.value
CCCCCCC(CCCCCC)N1C(=O)c2ccc3c4ccc5c6c(ccc(c7ccc(c2c37)C1=O)c64)C(=O)N(CCCNC(=O)CCCOc1cc(I)c(OC)cc1CC(C)N)C5=O (centres unmarked) [12h]	human 5-HT2C receptors (Homo sapiens)	Ki	µM	7.99
COC(=O)c1c(C(=O)OCCCNC(=O)CCCOc2cc(I)c(OC)cc2CC(C)N)c2cc3ccccc3cc2c2cc3ccccc3cc12 (centres unmarked) [12g]	human 5-HT2C receptors (Homo sapiens)	Ki	µM	2.28

----------
Experiment: Absorption and emission spectra (photophysical properties)
Type: physicochemical
Conditions: 10 μM solutions
Rule for this label: MET means Δλ (Stokes shift) is less than 80 nm; NOT MET means Δλ (Stokes shift) is at least 80 nm.

molecule	assigned.class
COC(=O)c1c(C(=O)OCCCNC(=O)CCCOc2cc(I)c(OC)cc2CC(C)N)c2ccccc2c2ccccc12 (stereo not drawn) [12d]	NOT MET
COC(=O)c1c(C(=O)OCCCNC(=O)CCCOc2cc(I)c(OC)cc2CC(C)N)c2cc3ccccc3cc2c2cc3ccccc3cc12 (stereo not drawn) [12g]	NOT MET
CCN(CC)c1ccc2c(-c3ccccc3C(=O)NCCC(=O)NCCC(=O)NCCCOCCOCCOCCCNC(=O)CCCOc3cc(I)c(OC)cc3CC(C)N)c3ccc(=[N+](CC)CC)cc-3oc2c1 (stereo not drawn) [12i]	MET
COc1cc(CC(C)N)c(OCCCC(=O)NCCCN2C(=O)c3c(c4ccccc4c4ccccc34)C2=O)cc1I (stereo not drawn) [12c]	MET
CCCCCCC(CCCCCC)N1C(=O)c2ccc3c4ccc5c6c(ccc(c7ccc(c2c37)C1=O)c64)C(=O)N(CCCNC(=O)CCCOc1cc(I)c(OC)cc1CC(C)N)C5=O (stereo not drawn) [12h]	MET
COC(=O)c1c(C(=O)OCCCNC(=O)CCCOc2cc(I)c(OC)cc2CC(C)N)c2cc(F)c(F)cc2c2cc(F)c(F)cc12 (stereo not drawn) [12e]	NOT MET
COc1cc(CC(C)N)c(OCCCC(=O)NCCCNc2ccc([N+](=O)[O-])c3nonc23)cc1I (stereo not drawn) [12b]	MET
COC(=O)c1c(C(=O)OCCCNC(=O)CCCOc2cc(I)c(OC)cc2CC(C)N)c2cc3c(cc2c2cc4c(cc12)CCC4)CCC3 (stereo not drawn) [12f]	NOT MET
COc1cc(CC(C)N)c(OCCCC(=O)NCCCNS(=O)(=O)c2cccc3c(N(C)C)cccc23)cc1I (stereo not drawn) [10a]	NOT MET
